Data origin: patent EP2518054A1

Kindly supply the reported activity at 1 µM values for the records listed here.
Molecular target: human GPR52 (Homo sapiens, UniProt Q9Y2T5)
Construct: expressed in transfected cells; host or cells: CHO(dhfr-) cells
Sequence (Q9Y2T5 whole entry): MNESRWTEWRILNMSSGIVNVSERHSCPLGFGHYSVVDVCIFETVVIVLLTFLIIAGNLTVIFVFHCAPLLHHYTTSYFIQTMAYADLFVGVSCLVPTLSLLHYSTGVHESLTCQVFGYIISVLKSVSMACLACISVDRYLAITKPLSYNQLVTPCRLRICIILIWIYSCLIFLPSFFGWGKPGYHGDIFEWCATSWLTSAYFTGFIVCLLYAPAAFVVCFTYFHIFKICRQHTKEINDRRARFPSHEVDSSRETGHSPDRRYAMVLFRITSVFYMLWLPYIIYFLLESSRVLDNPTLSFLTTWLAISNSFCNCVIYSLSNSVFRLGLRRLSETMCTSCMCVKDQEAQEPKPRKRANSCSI
Experiment: Increase of intracellular cAMP concentration in human GPR52-expressing CHO cell (AlphaScreen cAMP assay)
Type: cell-based
Details: CHO, 1µM test compound; 100% = cAMP with 1 µM Reference Example 79, 0% = DMSO; human GPR52-expressing CHO(dhfr-) cells, 37°C, 30 min; read-out: GPR52 agonist activity (%)
Form field: result (number plus unit)

Consider the molecule Cc1nn(-c2cccc3sc(Cc4cccc(C(F)(F)F)c4)cc23)c(C)c1C(=O)NCCO and give its measured activity at 1 µM.
97%

Consider the molecule Cc1nc(-c2cccc3oc(Cc4cccc(C(F)(F)F)c4)cc23)sc1C(N)=O and give its measured activity at 1 µM.
92%

Consider the molecule NC(=O)CNC(=O)c1cn(-c2cccc3cc(Cc4cccc(C(F)(F)F)c4)sc23)nc1C1CC1 and give its measured activity at 1 µM.
95%

Consider the molecule Cc1nc(-c2cccc3cc(Cc4cccc(C(F)(F)F)c4)sc23)n(C)c1C(=O)NCC(N)=O and give its measured activity at 1 µM.
93%

Consider the molecule Cn1nc(-c2cccc3cc(Cc4cccc(C(F)(F)F)c4)sc23)cc1C(=O)NCC(N)=O and give its measured activity at 1 µM.
94%

Consider the molecule Cc1cccc(Cc2cc3cccc(-n4nc(C)c(C(=O)NCC(N)=O)c4C)c3s2)c1 and give its measured activity at 1 µM.
70%

Consider the molecule CNC(=O)c1c(C)nn(-c2ccc(F)c3cc(Cc4cccc(C(F)(F)F)c4)sc23)c1C and give its measured activity at 1 µM.
99%

Consider the molecule Cc1nn(-c2cccc3sc(Cc4cc(F)cc(Cl)c4)cc23)c(C)c1C(=O)NCC(N)=O and give its measured activity at 1 µM.
100%

Consider the molecule Cc1nc(-c2cccc3cc(Cc4cccc(C(F)(F)F)c4)sc23)n(C)c1C(N)=O and give its measured activity at 1 µM.
89%

Consider the molecule O=C(NCCO)c1cn(-c2cccc3cc(Cc4cccc(C(F)(F)F)c4)sc23)nc1C(F)(F)F and give its measured activity at 1 µM.
79%

Consider the molecule Cc1nn(-c2cccc3cc(Cc4cc(F)cc(Cl)c4)sc23)c(C)c1C(=O)NCCO and give its measured activity at 1 µM.
105%

Consider the molecule COc1cc(Cc2cc3cccc(-n4nc(C)c(C(=O)NCCO)c4C)c3s2)ccc1F and give its measured activity at 1 µM.
94%

Consider the molecule Cc1cccc(Cc2cc3cccc(-n4nc(C)c(C(=O)NCCO)c4C)c3s2)c1 and give its measured activity at 1 µM.
96%

Consider the molecule Cc1nn(-c2ccc(F)c3cc(Cc4cccc(C(F)(F)F)c4)sc23)c(C)c1C(=O)NCC(N)=O and give its measured activity at 1 µM.
92%

Consider the molecule Cc1nn(-c2cccc3cc(Cc4cc(F)cc(Cl)c4)sc23)c(C)c1C(=O)NCC(N)=O and give its measured activity at 1 µM.
96%

Consider the molecule Cc1nn(-c2cccc3sc(Cc4cc(F)cc(Cl)c4)cc23)c(C)c1C(=O)NCCO and give its measured activity at 1 µM.
93%

----------
System: methamphetamine-induced locomotor hyperactivity in mice
Experiment: Inhibition test of methamphetamine-induced locomotor hyperactivity
Type: in vivo
Conditions: test compound 10 mg/kg body weight orally, male ICR mice; methamphetamine 2 mg/kg s.c. 60 min later; locomotor activity counted over 150 min, versus vehicle group
Kindly supply the reported Activity inhibition rate (%) values for the records listed here.
Response body: numeric value in %, unit text excluded.

Consider the molecule Cc1nn(-c2cccc3cc(Cc4cccc(C(F)(F)F)c4)sc23)cc1C(=O)NCCO [Example 15] and give its measured Activity inhibition rate (%).
48

Consider the molecule COCCNC(=O)c1cn(-c2cccc3cc(Cc4cccc(C(F)(F)F)c4)sc23)nc1C [Example 14] and give its measured Activity inhibition rate (%).
53

Consider the molecule Cc1nn(-c2ccc(F)c3cc(Cc4cccc(C(F)(F)F)c4)sc23)c(C)c1C(=O)NCC(N)=O [Example 58] and give its measured Activity inhibition rate (%).
47

Consider the molecule Cc1nn(-c2cccc3cc(Cc4cccc(C(F)(F)F)c4)sc23)c(CO)c1C(=O)NCCO [Example 65] and give its measured Activity inhibition rate (%).
51

Consider the molecule Cc1nn(-c2cccc3cc(Cc4cccc(C(F)(F)F)c4)sc23)cc1C(N)=O [Example 17] and give its measured Activity inhibition rate (%).
43

----------
Molecular target: human GPR52 (Homo sapiens, UniProt Q9Y2T5)
Construct: expressed in transfected cells; host or cells: CHO(dhfr-) cells
Assay: Increase of intracellular cAMP concentration in human GPR52-expressing CHO cell (AlphaScreen cAMP assay)
Format: cell-based
Conditions: CHO, 1µM test compound; 100% = cAMP with 1 µM Reference Example 79, 0% = DMSO; human GPR52-expressing CHO(dhfr-) cells, 37°C, 30 min; read-out: GPR52 agonist activity (%)
assayReadout: activity at 1 µM (%)
Response body: numeric value in %, unit text excluded.

Param readout= activity at 1 µM; system= human GPR52 (Homo sapiens, UniProt Q9Y2T5); entry= Cc1nn(-c2cccc3nn(Cc4cccc(C(F)(F)F)c4)cc23)c(C)c1C(=O)NCCO ; returns value.
102

Param readout= activity at 1 µM; system= human GPR52 (Homo sapiens, UniProt Q9Y2T5); entry= Cc1nn(-c2ccc(F)c3cc(Cc4cccc(C(F)(F)F)c4)sc23)c(C)c1C(N)=O ; returns value.
93

Param readout= activity at 1 µM; system= human GPR52 (Homo sapiens, UniProt Q9Y2T5); entry= COc1cc(Cc2cc3cccc(-n4nc(C)c(C(=O)NCC(N)=O)c4C)c3s2)ccc1F ; returns value.
84

Param readout= activity at 1 µM; system= human GPR52 (Homo sapiens, UniProt Q9Y2T5); entry= Cc1nc(-c2cccc3nn(Cc4cc(F)cc(C(F)(F)F)c4)cc23)sc1C(N)=O ; returns value.
85

----------
Kindly supply the reported activity at 1 µM values for the records listed here.
Molecular target: human GPR52 (Homo sapiens)
Construct: expressed in transfected cells; host or cells: CHO(dhfr-) cells
Test: Increase of intracellular cAMP concentration in human GPR52-expressing CHO cell (AlphaScreen cAMP assay)
Assay type: cell-based
Settings: CHO, 1µM test compound; 100% = cAMP with 1 µM Reference Example 79, 0% = DMSO; human GPR52-expressing CHO(dhfr-) cells, 37°C, 30 min; read-out: GPR52 agonist activity (%)
Response body: numeric value in %, unit text excluded.

Consider the compound Cc1nn(-c2cccc3nn(Cc4cc(F)cc(C(F)(F)F)c4)cc23)c(C)c1C(=O)NCCO [Example 84] and give its measured activity at 1 µM.
105

Consider the compound Cc1nn(-c2cccc3nn(Cc4cc(F)cc(C(F)(F)F)c4)cc23)c(C)c1C(N)=O [Example 83] and give its measured activity at 1 µM.
104

Consider the compound Cc1cc(C(=O)NCC(N)=O)n(-c2cccc3cc(Cc4cccc(C(F)(F)F)c4)sc23)n1 [Example 31] and give its measured activity at 1 µM.
84

Consider the compound Cc1nn(-c2cccc3nn(Cc4cccc(C(F)(F)F)c4)cc23)c(C)c1C(=O)NCC(N)=O [Example 80] and give its measured activity at 1 µM.
98

Consider the compound Cc1nn(-c2cccc3cc(Cc4cc(F)cc(F)c4)sc23)c(C)c1C(N)=O [Example 100] and give its measured activity at 1 µM.
104

Consider the compound Cc1nn(-c2cccc3nn(Cc4cc(F)cc(Cl)c4)cc23)c(C)c1C(N)=O [Example 81] and give its measured activity at 1 µM.
102

Consider the compound Cc1nc(-c2cccc3cc(Cc4cccc(C(F)(F)F)c4)sc23)oc1C(=O)NCC(N)=O [Example 11] and give its measured activity at 1 µM.
70

Consider the compound COCCNC(=O)c1c(C)nn(-c2cccc3cc(Cc4cccc(C(F)(F)F)c4)sc23)c1CO [Example 66] and give its measured activity at 1 µM.
89

----------
Kindly supply the reported activity at 1 µM values for the records listed here.
Target: human GPR52 (Homo sapiens)
Construct: expressed in transfected cells; host or cells: CHO(dhfr-) cells
Experiment: Increase of intracellular cAMP concentration in human GPR52-expressing CHO cell (AlphaScreen cAMP assay)
Assay type: cell-based
Settings: CHO, 1µM test compound; 100% = cAMP with 1 µM Reference Example 79, 0% = DMSO; human GPR52-expressing CHO(dhfr-) cells, 37°C, 30 min; read-out: GPR52 agonist activity (%)
Experimental: Increase of intracellular cAMP concentration in human GPR52-expressing CHO cell Using OptiPlate-384 (PerkinElmer Inc.), 1×10^4 human GPR52-expressing CHO(dhfr-) cells were incubated together with various concentration(10^-5µM - 10µm) of a test compound in an assay buffer (30 µL, HBSS (containing Ca^2+ and Mg^2+), 0.5% BSA, 100 µM IBMX, 100 µM Ro20-1724, 5 mM HEPES (pH 7.55)) at 37°C for 30 min. […]
Response body: numeric value in %, unit text excluded.

Consider the compound COCCNC(=O)c1c(C)nn(-c2cccc3cc(Cc4cc(F)cc(Cl)c4)sc23)c1C [Example 57] and give its measured activity at 1 µM.
96

Consider the compound Cc1nn(-c2cccc3oc(Cc4cccc(C(F)(F)F)c4)cc23)c(C)c1C(N)=O [Example 76] and give its measured activity at 1 µM.
95

Consider the compound Cc1nc(-c2cccc3oc(Cc4cccc(C(F)(F)F)c4)cc23)sc1C(=O)NCCO [Example 46] and give its measured activity at 1 µM.
90

Consider the compound Cc1nn(-c2cccc3cc(Cc4cccc(C(F)(F)F)c4)sc23)cc1C(=O)NCCO [Example 15] and give its measured activity at 1 µM.
102

Consider the compound Cc1nn(-c2cccc3cc(Cc4cccc(C(F)(F)F)c4)sc23)c(C)c1C(N)=O [Example 54] and give its measured activity at 1 µM.
101

Consider the compound O=C(NCCO)c1sc(-c2cccc3nn(Cc4cccc(C(F)(F)F)c4)cc23)nc1C(F)(F)F [Example 88] and give its measured activity at 1 µM.
83

Consider the compound Cc1c(C(=O)NCCO)c(CO)nn1-c1cccc2cc(Cc3cccc(C(F)(F)F)c3)sc12 [Example 67] and give its measured activity at 1 µM.
83

Consider the compound Cn1nc(-c2cccc3cc(Cc4cccc(C(F)(F)F)c4)sc23)cc1C(=O)NCCO [Example 111] and give its measured activity at 1 µM.
89

Consider the compound Cc1nn(-c2ccc(F)c3cc(Cc4cc(F)cc(Cl)c4)sc23)c(C)c1C(=O)NCCO [Example 60] and give its measured activity at 1 µM.
99

Consider the compound Cc1c(C(N)=O)c(CO)nn1-c1cccc2cc(Cc3cccc(C(F)(F)F)c3)sc12 [Example 69] and give its measured activity at 1 µM.
78

Consider the compound Cc1nn(-c2cccc3oc(Cc4cccc(C(F)(F)F)c4)cc23)c(C)c1C(=O)NCCO [Example 75] and give its measured activity at 1 µM.
101

Consider the compound Cc1nn(-c2cccc3cc(Cc4cccc(C(F)(F)F)c4)sc23)c(C)c1C(=O)NCC(N)=O [Example 53] and give its measured activity at 1 µM.
102

Consider the compound Cc1nn(-c2cccc3nn(Cc4cccc(C(F)(F)F)c4)cc23)c(C)c1C(N)=O [Example 78] and give its measured activity at 1 µM.
104

Consider the compound Cc1nn(-c2cccc3cc(Cc4cc(F)cc(F)c4)sc23)c(C)c1C(=O)NCC(N)=O [Example 101] and give its measured activity at 1 µM.
96

Consider the compound Cc1c(C(=O)NCC(N)=O)c(CO)nn1-c1cccc2cc(Cc3cccc(C(F)(F)F)c3)sc12 [Example 68] and give its measured activity at 1 µM.
88

Consider the compound O=C(NCCO)c1cn(-c2cccc3cc(Cc4cccc(C(F)(F)F)c4)sc23)nc1C1CC1 [Example 29] and give its measured activity at 1 µM.
97
